biological target: hSERT (Homo sapiens, UniProt P31645); construct: expressed in transfected cells; host or cells: HEK-293 derived cell line, stably transfected; membrane preparation; assay: hSERT binding assay (Assay 1); details: ratio of SERT Ki to NET Ki from binding assays
Sequence (P31645 whole entry): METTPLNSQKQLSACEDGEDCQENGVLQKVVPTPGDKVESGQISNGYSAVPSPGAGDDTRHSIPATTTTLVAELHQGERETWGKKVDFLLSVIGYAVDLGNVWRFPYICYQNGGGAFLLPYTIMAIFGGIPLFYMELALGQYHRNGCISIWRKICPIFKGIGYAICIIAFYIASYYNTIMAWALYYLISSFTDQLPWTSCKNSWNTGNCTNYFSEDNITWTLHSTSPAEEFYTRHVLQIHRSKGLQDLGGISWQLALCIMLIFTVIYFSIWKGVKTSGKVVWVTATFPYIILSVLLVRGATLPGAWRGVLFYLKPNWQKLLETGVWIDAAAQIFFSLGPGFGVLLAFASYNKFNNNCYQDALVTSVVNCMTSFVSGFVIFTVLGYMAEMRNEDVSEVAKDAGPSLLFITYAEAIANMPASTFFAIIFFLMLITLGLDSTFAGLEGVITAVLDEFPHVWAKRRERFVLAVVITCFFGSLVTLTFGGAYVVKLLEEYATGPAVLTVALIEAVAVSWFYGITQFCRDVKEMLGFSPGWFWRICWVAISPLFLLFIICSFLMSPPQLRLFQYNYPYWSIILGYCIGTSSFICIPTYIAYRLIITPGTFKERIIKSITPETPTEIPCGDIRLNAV
Returns 1 (yes) if the recorded SERT Ki/NET Ki is greater than or equal to 1, and 0 (no) otherwise.

These recorded examples may help you get a feel for the data.
# compound, assignedCategory
records = [
    ("Cc1cc(F)ccc1O[C@@H](c1ccccc1)[C@H]1CCNC1", "0 (no)"),
    ("Fc1cc(Cl)cc(OC(c2ccccc2)C2CCNC2)c1 (stereo not shown) [34-4]", "0 (no)"),
    ("Fc1ccc(Cl)c(O[C@H](c2ccccc2)[C@@H]2CCNC2)c1", "0 (no)"),
    ("Cc1ccc(OC(c2ccccc2)C2CCNC2)cc1F (stereo not shown) [33-3]", "0 (no)"),
    ("Cc1ccc(F)c(OC(c2ccccc2)C2CCNC2)c1 (stereo not shown)", "1 (yes)"),
    ("COc1cccc(C(Oc2cc(Cl)ccc2Cl)C2CCNC2)c1 (stereo not shown)", "0 (no)"),
    ("Fc1cc(F)cc(C(Oc2ccc(Cl)cc2F)C2CCNC2)c1 (stereo not shown)", "0 (no)"),
    ("Fc1cccc(Cl)c1O[C@H](c1ccccc1)[C@@H]1CCNC1", "1 (yes)"),
]

stdin: Check if SERT Ki/NET Ki >= 1 (inclusive). Item: Cc1cccc(F)c1OC(c1ccccc1)C1CCNC1 (stereo not shown)
stdout: 1 (yes)

stdin: For this compound, is measured SERT Ki/NET Ki 1 or higher? `COc1cc(Cl)ccc1O[C@@H](c1cc(F)cc(F)c1)[C@H]1CCNC1`
stdout: 0 (no)

stdin: State whether the measured SERT Ki/NET Ki reaches 1, counting equality as reaching it, for Cc1cccc(Cl)c1OC(c1ccccc1)C1CCNC1 (stereo not shown) [31-11]
stdout: 1 (yes)

stdin: I'd appreciate it if you could say whether Fc1ccc(Cl)c(OC(c2ccccc2)C2CCNC2)c1 (stereo not shown) has SERT Ki/NET Ki at least equal to 1.
stdout: 1 (yes)

stdin: Would you say `Cc1ccc(F)c(O[C@@H](c2ccccc2)[C@H]2CCNC2)c1` shows SERT Ki/NET Ki at minimum 1?
stdout: 1 (yes)

stdin: Assess whether reported SERT Ki/NET Ki for `Fc1ccc(Cl)cc1O[C@H](c1ccccc1)[C@@H]1CCNC1` sits at 1 or higher.
stdout: 0 (no)

----------
target: hSERT (Homo sapiens); construct: expressed in transfected cells; host or cells: HEK-293 derived cell line, stably transfected; membrane preparation; assay: hSERT binding assay (Assay 1); conditions: ratio of SERT Ki to NET Ki (binding)
measuredMetric: SERT Ki/NET Ki
Reply with just the number.

get_value(item= Cc1ccc(Cl)c(OC(c2cc(F)cc(Cl)c2)C2CCNC2)c1Cl (stereo not shown) , readout=SERT Ki/NET Ki) returns 1

Given item `COc1ccc(F)c(F)c1O[C@H](c1ccccc1)[C@@H]1CCNC1` , the value recorded as its SERT Ki/NET Ki is 1

Lookup result for COc1ccc(F)c(F)c1OC(c1cc(F)cc(F)c1)C1CCNC1 (stereo not shown) ; measured SERT Ki/NET Ki: 1

The recorded SERT Ki/NET Ki for Fc1cc(F)cc(C(Oc2cc(Cl)cc(Cl)c2)C2CCNC2)c1 (stereo not shown) [35-14] is 0.3

Value of measured SERT Ki/NET Ki for the entry Cc1ccc(Cl)c(OC(c2cccc(C#N)c2)C2CCNC2)c1Cl (stereo not shown) : 7.9

response.value for Cc1ccc(F)c(OC(c2ccccc2)C2CCNC2)c1F (stereo not shown) (field: SERT Ki/NET Ki) = 2
